Parameter: pIC50. Scope: all listed entries.
target: CDK2 (UniProt P24941); assay: Enzyme Assay
pIC50: −log10 of the molar value.
measured.endpoint: pIC50

molecule	measured.endpoint	value.observed
O=c1ccc2cnc(Nc3ccc(-n4cccn4)cc3)nc2n1C1CCCC1	pIC50	7.45
COc1ccc(Nc2ncc3ccc(=O)n(C(C)C)c3n2)cc1	pIC50	6.41
O=c1ccc2cnc(Nc3ccc(N4CCC(CCO)CC4)cc3)nc2n1C1CCCCC1	pIC50	7.85
O=c1ccc2cnc(Nc3cccc(OC(F)(F)C(F)F)c3)nc2n1C1CC2CCC1C2 (stereo unspecified)	pIC50	6.56
O=c1ccc2cnc(Nc3ccc(N4CCCCC4)cc3)nc2n1CCCOC1CCCCO1 (stereo unspecified)	pIC50	6.55
O=c1ccc2cnc(Nc3ccc(N4CCCCC4)cc3)nc2n1C1CCCCC1	pIC50	7.18

----------
biological target: UniProt P24941; assay: Enzyme Assay
Parameter: log10(IC50). Scope: all listed entries.
measured.endpoint: log10(IC50) (log10 of the value in nM)

compound	log10(IC50)
O=c1ccc2cnc(Nc3ccc(N4CCCC(O)C4)cc3)nc2n1C1CCCC1 (stereo not given)	1.64
CCCn1c(=O)ccc2cnc(N(C)c3ccc(O)c(N4CCOCC4)c3)nc21	3.04
Cc1cc(Nc2ncc3ccc(=O)n(C(C)C)c3n2)ccc1Cl	2.54
O=c1ccc2cnc(Nc3ccc(N4CCCCC4)cc3)nc2n1C1CCCCC1	2.29
COc1ccc(Nc2ncc3ccc(=O)n(C(C)C)c3n2)cc1	2.73
O=c1ccc2cnc(Nc3cccc(OC(F)(F)C(F)F)c3)nc2n1C1CC2CCC1C2 (stereo not given)	4.00
O=c1ccc2cnc(Nc3ccc4cn[nH]c4c3)nc2n1CC1CC1	2.41
CCCCn1c(=O)ccc2cnc(Nc3cc(Cl)cc(Cl)c3)nc21	3.58
O=c1ccc2cnc(Nc3ccc(N4CCC(CCO)CC4)cc3)nc2n1C1CCCCC1	1.48
O=c1ccc2cnc(Nc3ccc(N4CCCCC4)cc3)nc2n1CCCOC1CCCCO1 (stereo not given)	3.28
CC(C)n1c(=O)ccc2cnc(Nc3ccc(F)c(Cl)c3)nc21	2.15
O=c1ccc2cnc(Nc3c(F)cc(F)cc3F)nc2n1C1CCCC1	2.52
CCC(CC)n1c(=O)ccc2cnc(Nc3cccc(C(F)(F)F)c3)nc21	2.78
CCCn1c(=O)ccc2cnc(Nc3cc(OC)c(OC)c(OC)c3)nc21	3.22
CCC(CC)n1c(=O)ccc2cnc(Nc3ccc(F)c(C)c3)nc21	2.19
CCCn1c(=O)ccc2cnc(Nc3ccc(NC(=O)OC(C)(C)C)cc3)nc21	3.39
O=c1ccc2cnc(Nc3ccc(Br)c(C(F)(F)F)c3)nc2n1C1CCCC1	2.34
CCCn1c(=O)ccc2cnc(Nc3ccc(I)c(Cl)c3)nc21	2.91
COc1ccc(Nc2ncc3ccc(=O)n(C4CCCC4)c3n2)cc1F	1.88
O=c1ccc2cnc(Nc3ccc(-n4cccn4)cc3)nc2n1C1CCCC1	1.94

----------
Parameter: pIC50. Scope: all listed entries.
target: CDK2 (UniProt P24941); assay: Enzyme Assay
pIC50: −log10 of the molar value.

entry.smiles	pIC50
CCCn1c(=O)ccc2cnc(N(C)c3ccc(O)c(N4CCOCC4)c3)nc21	6.17
O=c1ccc2cnc(Nc3ccc4cn[nH]c4c3)nc2n1CC1CC1	6.70
Cc1cc(Nc2ncc3ccc(=O)n(C(C)C)c3n2)ccc1Cl	6.66
CCC(CC)n1c(=O)ccc2cnc(Nc3cccc(C(F)(F)F)c3)nc21	6.88
O=c1ccc2cnc(Nc3ccc(Br)c(C(F)(F)F)c3)nc2n1C1CCCC1	6.82
CCCn1c(=O)ccc2cnc(Nc3ccc(NC(=O)OC(C)(C)C)cc3)nc21	6.09
CCCn1c(=O)ccc2cnc(Nc3ccc(I)c(Cl)c3)nc21	6.74
COc1ccc(Nc2ncc3ccc(=O)n(C4CCCC4)c3n2)cc1F	7.46
O=c1ccc2cnc(Nc3c(F)cc(F)cc3F)nc2n1C1CCCC1	6.33
